# procedureText: 13-week repeated oral toxicity: weight measurement
# Assay type: in vivo, beagle
# measurementParameters: 500 mg/kg repeated oral (G3), male, week 1, mean
reportedProperty: Weight, Mean (kg)
Answers are plain numbers, in kg.

## Input // Input: CN1C(=O)NC(=O)C1O (stereo not shown) [KBP-001] . Output its Weight, Mean only.
## Output 10

====

# procedureText: 13-week repeated oral toxicity: weight measurement
# Assay type: in vivo, beagle
# measurementParameters: 500 mg/kg repeated oral (G3), female, week 11, mean
reportedProperty: Weight, Mean (kg)
Answers are plain numbers, in kg.

## Input // Input: CN1C(=O)NC(=O)C1O (stereo not shown) [KBP-001] . Output its Weight, Mean only.
## Output 9.9

====

# procedureText: 13-week repeated oral toxicity: weight measurement
# Assay type: in vivo, beagle
# measurementParameters: 1,000 mg/kg repeated oral (G4), male, week 7, mean
reportedProperty: Weight, Mean (kg)
Answers are plain numbers, in kg.

## Input // Input: CN1C(=O)NC(=O)C1O (stereo not shown) . Output its Weight, Mean only.
## Output 10.1

====

# procedureText: 13-week repeated oral toxicity: weight measurement
# Assay type: in vivo, beagle
# measurementParameters: 1,000 mg/kg repeated oral (G4), female, week 1, mean
reportedProperty: Weight, Mean (kg)
Give bare numbers, in kg.

## Input // Input: CN1C(=O)NC(=O)C1O (stereo not shown) . Output its Weight, Mean only.
## Output 9.4

====

# Tested on: beagles
# procedureText: 13-week repeated oral toxicity: hematological test
# Format: in vivo, beagle
# measurementParameters: G3 500 mg/kg, repeated administration for 13 weeks, female, group mean
reportedProperty: MCH
Number plus unit, in that order.

## Input // Input: CN1C(=O)NC(=O)C1O (stereo not shown) . Output its MCH only.
## Output 23.5 pg

====

# procedureText: 13-week repeated oral toxicity: weight measurement
# Assay type: in vivo, beagle
# measurementParameters: 500 mg/kg repeated oral (G3), male, week 9, mean
reportedProperty: Weight, Mean (kg)
Answers are plain numbers, in kg.

## Input // Input: CN1C(=O)NC(=O)C1O (stereo not shown) . Output its Weight, Mean only.
## Output 10.1

====

# procedureText: 13-week repeated oral toxicity: weight measurement
# Format: in vivo, beagle
# measurementParameters: 200 mg/kg repeated oral (G2), female, week 8, mean
reportedProperty: Weight, Mean

## Input // Input: CN1C(=O)NC(=O)C1O (stereo not shown) . Output its Weight, Mean only.
## Output 9.5 kg

====

# procedureText: 13-week repeated oral toxicity: weight measurement
# Type: in vivo, beagle
# measurementParameters: 1,000 mg/kg repeated oral (G4), female, week 3, mean
reportedProperty: Weight, Mean (kg)
Numbers only, in kg.

## Input // Input: CN1C(=O)NC(=O)C1O (stereo not shown) [KBP-001] . Output its Weight, Mean only.
## Output 9.4

====

# procedureText: 13-week repeated oral toxicity: weight measurement
# Type: in vivo, beagle
# measurementParameters: 1,000 mg/kg repeated oral (G4), female, week 9, mean
reportedProperty: Weight, Mean (kg)
One number for each entry, in kg.

## Input // Input: CN1C(=O)NC(=O)C1O (stereo not shown) . Output its Weight, Mean only.
## Output 9.7

====

# procedureText: 13-week repeated oral toxicity: weight measurement
# Type: in vivo, beagle
# measurementParameters: 200 mg/kg repeated oral (G2), male, week 1, mean
reportedProperty: Weight, Mean (kg)
Answers are plain numbers, in kg.

## Input // Input: CN1C(=O)NC(=O)C1O (stereo not shown) . Output its Weight, Mean only.
## Output 10.1

Values from patent US20240299359A1
